# experimental.system: LIM domain kinase 1 (Homo sapiens, UniProt P53667); also: in the data inactive means no Kd found up to 30 µM
# Sequence (P53667 whole entry, the tested form may be a part): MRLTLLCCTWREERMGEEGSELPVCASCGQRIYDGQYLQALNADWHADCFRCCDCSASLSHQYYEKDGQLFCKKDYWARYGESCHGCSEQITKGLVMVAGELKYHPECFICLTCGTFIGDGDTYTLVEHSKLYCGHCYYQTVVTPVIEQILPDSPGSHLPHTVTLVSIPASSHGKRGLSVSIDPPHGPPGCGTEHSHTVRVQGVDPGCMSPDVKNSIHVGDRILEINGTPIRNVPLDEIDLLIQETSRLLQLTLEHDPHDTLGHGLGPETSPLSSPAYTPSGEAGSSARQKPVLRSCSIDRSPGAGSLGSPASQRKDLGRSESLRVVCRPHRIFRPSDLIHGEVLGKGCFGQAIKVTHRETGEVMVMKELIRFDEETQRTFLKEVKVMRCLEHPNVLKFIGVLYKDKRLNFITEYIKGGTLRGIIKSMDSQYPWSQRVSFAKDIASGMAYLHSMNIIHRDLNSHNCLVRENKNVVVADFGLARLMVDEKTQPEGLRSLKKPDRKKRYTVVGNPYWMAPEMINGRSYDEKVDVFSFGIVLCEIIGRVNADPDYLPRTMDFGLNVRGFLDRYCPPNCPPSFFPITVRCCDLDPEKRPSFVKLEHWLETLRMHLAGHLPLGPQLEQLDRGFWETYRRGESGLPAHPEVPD
Calls of active or inactive are those of the source.
Please state which outcome applies, choosing from true (1) = active, false (0) = inactive

[
  {
    "molecule": "C[C@@H](Oc1cc(C(=O)Nc2ccc(C(=O)N3CCN(C)CC3)cc2)nnc1N)c1c(Cl)ccc(F)c1Cl",
    "qualitative.label": "false (0)"
  }
]

Could you now consider this next molecule?
stdin: What outcome does the record of this test show for COc1cc([C@@H]2c3cc4c(cc3[C@H](O)[C@H]3COC(=O)[C@@H]23)OCO4)cc(OC)c1OC ?
stdout: false (0)

----------
Parameter Kd, tested on S-adenosylmethionine synthase isoform type-2 (Homo sapiens, UniProt P31153), listed per item. Also: in the data inactive means no Kd found up to 30 µM.
Sequence (P31153 whole entry, canonical isoform): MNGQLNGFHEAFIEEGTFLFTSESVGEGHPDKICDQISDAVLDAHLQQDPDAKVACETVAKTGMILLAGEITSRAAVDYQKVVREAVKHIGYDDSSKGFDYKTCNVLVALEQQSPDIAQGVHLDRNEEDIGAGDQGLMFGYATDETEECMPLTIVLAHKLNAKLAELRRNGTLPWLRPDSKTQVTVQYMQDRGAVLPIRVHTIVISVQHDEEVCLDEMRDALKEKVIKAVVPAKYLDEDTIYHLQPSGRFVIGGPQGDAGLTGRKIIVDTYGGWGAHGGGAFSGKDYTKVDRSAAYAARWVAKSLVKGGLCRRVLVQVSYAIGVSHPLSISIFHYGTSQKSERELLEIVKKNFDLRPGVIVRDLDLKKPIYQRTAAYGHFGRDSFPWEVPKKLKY
Calls of active or inactive are those of the source.

Please state, for each entry, its recorded Kd.
1. C[C@H]1CNCCCN1S(=O)(=O)c1cccc2cncc(F)c12
2. Cc1nc2cc(-c3nn(C(C)C)c4ncnc(N)c34)ccc2o1
3. N#CC1(c2ccc(NC(=O)c3cccnc3NCc3ccncc3)cc2)CCCC1
4. Cc1cccc(-c2nn3c(c2-c2ccnc4ccc(C(N)=O)cc24)CCC3)n1
5. CN1CCN(CCOc2cc(OC3CCOCC3)c3c(Nc4c(Cl)ccc5c4OCO5)ncnc3c2)CC1

stdout:
1: > 30 µM (inactive); 2: > 30 µM (inactive); 3: > 30 µM (inactive); 4: > 30 µM (inactive); 5: > 30 µM (inactive)

Measured values drawn from ChEMBL document CHEMBL3991601 for this set.
